Tested on: Staphylococcus
experiment_notes: Antibacterial activity against methicillin-sensitive coagulase-negative Staphylococcus clinical isolate after 18 hrs by NCCLS M7-A4 method
Format: functional
Below, each entry is listed alongside its reported MIC.

A selection of reference data follows.
[
  {
    "molecule": "CC(=O)NC[C@H]1CN(c2ccc(N3CCOCC3)c(F)c2)C(=O)O1",
    "measured_value": "0.5 µg/mL"
  },
  {
    "molecule": "CCOC(=O)C1C(=O)C=C(Nc2ccc(N3CCOCC3)c(F)c2)CC1C (stereo not drawn)",
    "measured_value": "> 16 µg/mL"
  },
  {
    "molecule": "CCOC(=O)C1C(=O)C=C(NC[C@H]2CN(c3ccc(N4CCOCC4)c(F)c3)C(=O)O2)CC1C (stereo partly drawn)",
    "measured_value": "> 16 µg/mL"
  },
  {
    "molecule": "COC(=O)C1C(=O)C=C(NC[C@H]2CN(c3ccc(N4CCOCC4)c(F)c3)C(=O)O2)CC1C (stereo partly drawn)",
    "measured_value": "> 16 µg/mL"
  },
  {
    "molecule": "O=C1O[C@@H](Cn2ccnn2)CN1c1ccc(N2CCOCC2)c(F)c1",
    "measured_value": "1 µg/mL"
  }
]

Field request: MIC | item: CCOC(=O)C1C(=O)C=C(Nc2ccc(N3CCOCC3)c(F)c2)CC1c1ccccc1 (stereo not drawn) > 16 µg/mL

Field request: MIC | item: COC(=O)C1C(=O)C=C(NC[C@H]2CN(c3ccc(N4CCOCC4)c(F)c3)C(=O)O2)CC1c1ccccc1 (stereo partly drawn) > 16 µg/mL

Field request: MIC | item: CN[C@H](CC(C)C)C(=O)N[C@H]1C(=O)N[C@@H](CC(N)=O)C(=O)N[C@H]2C(=O)N[C@H]3C(=O)N[C@H](C(=O)N[C@H](C(=O)O)c4cc(O)cc(O)c4-c4cc3ccc4O)[C@H](O)c3ccc(c(Cl)c3)Oc3cc2cc(c3O[C@@H]2O[C@H](CO)[C@@H](O)[C@H](O)[C@H]2O[C@H]2C[C@](C)(N)[C@H](O)[C@H](C)O2)Oc2ccc(cc2Cl)[C@H]1O 1 µg/mL
